experiment: background-corrected fluorescence of 3'-dye-labeled ssDNA relative to brightest sequence (3'-GCGCG) (fraction); higher = brighter dye fluorescence (less quenching); settings: dye: Cy3 (3' terminal)
measured-endpoint: background-corrected fluorescence
Number only, please.

Worked examples follow.
TTTTTTCATGCTGCTGAGCATTTTTTTTTTTTTTTGAACT [TCAAG]: 0.5
TTTTTTCATGATGCTGATGATTTTTTTTTTTTTTTGCACC [CCACG]: 0.391
TTTTTTCAGCATCATCATCATTTTTTTTTTTTTTTGTGGG [GGGTG]: 0.717

[ask] Given TTTTTTGATCATGCTGCTGATTTTTTTTTTTTTTTCGAAC [CAAGC] , respond with its background-corrected fluorescence.
[reply] 0.48

[ask] Given TTTTTTCATGCGCATCATGATTTTTTTTTTTTTTTGATGC [CGTAG] , respond with its background-corrected fluorescence.
[reply] 0.522

[ask] Given "TTTTTTGAGCAGCATGAGCATTTTTTTTTTTTTTTCTTCT" , respond with its background-corrected fluorescence.
[reply] 0.441

[ask] Given "TTTTTGCATGCGCATGCGCATTTTTTTTTTTTTTTTATAT" , respond with its background-corrected fluorescence.
[reply] 0.57
